Molecular target: ACE from pig kidney (Sus scrofa)
Construct: 1 mU ACE from pig kidney (EC 3.4.15.1 (Sigma)); purchased Sigma; host or cells: pig kidney (tissue-derived enzyme)
Sequence (F1RRW5 34-1309): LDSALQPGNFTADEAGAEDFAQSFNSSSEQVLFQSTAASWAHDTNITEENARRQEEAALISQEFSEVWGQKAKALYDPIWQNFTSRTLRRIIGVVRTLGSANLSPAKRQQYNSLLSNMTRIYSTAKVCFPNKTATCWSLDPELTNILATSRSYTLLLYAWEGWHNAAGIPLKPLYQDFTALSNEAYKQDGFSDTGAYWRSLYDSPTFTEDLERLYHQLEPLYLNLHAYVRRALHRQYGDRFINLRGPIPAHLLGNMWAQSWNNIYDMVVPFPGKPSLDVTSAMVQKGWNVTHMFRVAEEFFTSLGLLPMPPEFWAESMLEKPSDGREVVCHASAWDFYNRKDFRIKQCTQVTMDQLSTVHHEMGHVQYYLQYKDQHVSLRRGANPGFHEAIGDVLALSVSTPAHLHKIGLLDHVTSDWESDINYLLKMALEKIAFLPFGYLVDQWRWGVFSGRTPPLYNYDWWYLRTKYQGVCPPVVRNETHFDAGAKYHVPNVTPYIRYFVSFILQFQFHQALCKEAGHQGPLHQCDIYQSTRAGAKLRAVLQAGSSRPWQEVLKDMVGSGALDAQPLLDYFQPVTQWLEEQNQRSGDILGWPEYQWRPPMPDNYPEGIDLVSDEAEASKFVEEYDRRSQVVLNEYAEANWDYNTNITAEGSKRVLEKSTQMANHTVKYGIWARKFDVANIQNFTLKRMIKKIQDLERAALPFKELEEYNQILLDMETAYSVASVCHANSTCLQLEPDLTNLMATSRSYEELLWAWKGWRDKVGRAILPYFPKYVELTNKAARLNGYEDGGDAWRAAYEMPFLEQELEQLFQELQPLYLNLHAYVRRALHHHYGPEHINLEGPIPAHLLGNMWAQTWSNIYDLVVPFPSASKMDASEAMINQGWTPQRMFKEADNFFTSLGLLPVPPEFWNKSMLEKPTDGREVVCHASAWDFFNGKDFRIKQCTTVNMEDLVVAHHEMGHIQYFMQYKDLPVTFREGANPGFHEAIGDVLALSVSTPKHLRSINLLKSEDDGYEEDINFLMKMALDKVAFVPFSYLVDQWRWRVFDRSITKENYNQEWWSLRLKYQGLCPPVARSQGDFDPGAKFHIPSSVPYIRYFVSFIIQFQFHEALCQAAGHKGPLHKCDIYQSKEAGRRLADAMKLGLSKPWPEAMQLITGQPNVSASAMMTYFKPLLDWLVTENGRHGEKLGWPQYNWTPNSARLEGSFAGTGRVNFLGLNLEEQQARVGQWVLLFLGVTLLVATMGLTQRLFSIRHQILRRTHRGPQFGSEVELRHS
Test: biochemical
Type: biochemical
Details: inhibitor 12.5 μM; replicates A-D
Ends that are not written are not given here.
Catalogue of substances with associated inhibition at 12.5 µM
value type: inhibition at 12.5 µM (%)

1) AGAALSPLPEVPP [Peptide S543] : 34.4
2) AALSPLPEVPP [Peptide S494] : 57.1
3) PLPEVPP [Peptide S548, PLPEVPP] : 37.2
4) EAGAALSPLPEVPP [Peptide S542] : 26.3
5) LSPLPEVPP [Peptide S546] : 75.4
6) GAALSPLPEVPP [Peptide S544] : 28.1

----------
target: ACE from pig kidney (Sus scrofa); construct: 1 mU ACE from pig kidney (EC 3.4.15.1 (Sigma)); purchased Sigma; host or cells: pig kidney (tissue-derived enzyme); assay: biochemical; type: biochemical; settings: inhibitor 3.125 μM; replicates A-D
Ends that are not written are not given here.
value type: inhibition at 3.125 µM (%)

1) AGAALSPLPEVPP [Peptide S543] : 16.5
2) PLPEVPP [Peptide S548, PLPEVPP] : 18.6
3) LSPLPEVPP [Peptide S546] : 46.8
4) AALSPLPEVPP [Peptide S494] : 22.2
5) EAGAALSPLPEVPP [Peptide S542] : 15.9

----------
Biological target: ACE from pig kidney (Sus scrofa)
Construct: 1 mU ACE from pig kidney (EC 3.4.15.1 (Sigma)); purchased Sigma; host or cells: pig kidney (tissue-derived enzyme)
Sequence (F1RRW5 34-1309): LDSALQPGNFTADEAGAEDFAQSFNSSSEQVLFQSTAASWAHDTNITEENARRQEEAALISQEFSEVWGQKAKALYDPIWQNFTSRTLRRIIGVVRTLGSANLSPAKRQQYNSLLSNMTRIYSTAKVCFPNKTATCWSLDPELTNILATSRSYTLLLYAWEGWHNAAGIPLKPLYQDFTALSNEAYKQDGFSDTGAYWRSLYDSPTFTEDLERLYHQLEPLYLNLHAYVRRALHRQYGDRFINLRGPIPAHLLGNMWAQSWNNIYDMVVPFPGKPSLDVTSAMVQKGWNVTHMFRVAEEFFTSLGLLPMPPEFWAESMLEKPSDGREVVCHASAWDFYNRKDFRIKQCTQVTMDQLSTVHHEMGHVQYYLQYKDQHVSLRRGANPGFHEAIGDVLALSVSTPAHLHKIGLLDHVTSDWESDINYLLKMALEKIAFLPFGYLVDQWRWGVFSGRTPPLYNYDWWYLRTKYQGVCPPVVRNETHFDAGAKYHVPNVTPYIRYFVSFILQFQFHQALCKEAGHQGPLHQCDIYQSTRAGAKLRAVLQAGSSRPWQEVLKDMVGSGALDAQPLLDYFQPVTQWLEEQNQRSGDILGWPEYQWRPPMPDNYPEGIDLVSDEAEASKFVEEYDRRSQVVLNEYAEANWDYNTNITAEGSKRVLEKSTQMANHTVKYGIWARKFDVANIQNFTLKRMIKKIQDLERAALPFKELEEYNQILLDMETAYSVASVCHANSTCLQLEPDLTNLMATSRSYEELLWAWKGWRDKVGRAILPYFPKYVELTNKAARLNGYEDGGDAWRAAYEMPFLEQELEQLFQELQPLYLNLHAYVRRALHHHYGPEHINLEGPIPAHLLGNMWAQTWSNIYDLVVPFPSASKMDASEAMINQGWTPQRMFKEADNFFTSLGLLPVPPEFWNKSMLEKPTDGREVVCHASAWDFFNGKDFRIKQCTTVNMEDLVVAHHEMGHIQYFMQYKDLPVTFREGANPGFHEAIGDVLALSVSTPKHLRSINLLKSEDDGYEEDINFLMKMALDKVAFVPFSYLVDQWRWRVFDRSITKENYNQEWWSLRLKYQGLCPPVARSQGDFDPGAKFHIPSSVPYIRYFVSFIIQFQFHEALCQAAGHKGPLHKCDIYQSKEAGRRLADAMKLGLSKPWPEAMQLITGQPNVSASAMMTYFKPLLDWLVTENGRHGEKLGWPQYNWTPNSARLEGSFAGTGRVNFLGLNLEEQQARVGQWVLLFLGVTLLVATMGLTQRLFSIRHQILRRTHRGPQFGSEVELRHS
Experiment: biochemical
Format: biochemical
Conditions: inhibitor 6.25 μM; replicates A-D
Ends that are not written are not given here.
# cutoff 30% applies to inhibition at 6.25 µM; >= gives TRUE, < gives FALSE

1. EAGAALSPLPEVPP [Peptide S542] : FALSE
2. AALSPLPEVPP [Peptide S494] : TRUE
3. GAALSPLPEVPP [Peptide S544] : FALSE
4. PLPEVPP [Peptide S548, PLPEVPP] : FALSE
5. AGAALSPLPEVPP [Peptide S543] : FALSE
6. LSPLPEVPP [Peptide S546] : TRUE
